- MEASURED TARGET: human SGLT2 (Homo sapiens, UniProt P31639)
- Sequence (P31639 1-672): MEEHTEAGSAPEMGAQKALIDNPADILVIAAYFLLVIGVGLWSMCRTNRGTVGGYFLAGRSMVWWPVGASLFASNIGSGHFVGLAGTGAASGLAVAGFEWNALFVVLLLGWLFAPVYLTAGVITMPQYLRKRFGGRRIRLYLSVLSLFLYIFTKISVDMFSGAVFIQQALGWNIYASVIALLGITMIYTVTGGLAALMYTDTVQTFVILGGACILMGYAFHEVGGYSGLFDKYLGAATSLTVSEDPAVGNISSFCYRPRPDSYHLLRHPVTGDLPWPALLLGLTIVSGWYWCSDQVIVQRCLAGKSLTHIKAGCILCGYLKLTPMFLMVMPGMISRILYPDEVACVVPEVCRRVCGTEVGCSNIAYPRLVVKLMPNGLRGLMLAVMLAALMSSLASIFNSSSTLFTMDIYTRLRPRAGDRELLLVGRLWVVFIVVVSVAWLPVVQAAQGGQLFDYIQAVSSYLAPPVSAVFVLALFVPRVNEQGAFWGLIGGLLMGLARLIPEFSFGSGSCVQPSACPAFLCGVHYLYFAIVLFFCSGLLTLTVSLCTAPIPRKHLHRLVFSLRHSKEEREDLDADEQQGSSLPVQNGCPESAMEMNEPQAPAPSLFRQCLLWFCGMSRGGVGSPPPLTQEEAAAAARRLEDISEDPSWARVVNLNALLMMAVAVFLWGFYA
- EXPERIMENT: Cell-based assay for sodium-dependent glucose transport (14C-AMG uptake), CHOK-SGLT2
- ASSAY CONDITIONS: CHO-K1 cells stably expressing human SGLT2; Na-dependent 14C-AMG uptake
Strictly below 0.1 µM in IC50: T. Otherwise: F.

- CCCc1ccc(Cc2c[nH]c3cccc(O[C@@H]4O[C@H](CO)[C@@H](O)[C@H](O)[C@H]4O)c23)cc1: T

Problem: IC50 under 0.1 µM? Item: `Cc1ccc(Cc2c[nH]c3cccc(O[C@@H]4O[C@H](CO)[C@@H](O)[C@H](O)[C@H]4O)c23)cc1F`
Solution: T

Problem: IC50 under 0.1 µM? Item: `OC[C@H]1O[C@@H](Oc2cccc3[nH]cc(Cc4ccc(-c5ccsc5)cc4)c23)[C@H](O)[C@@H](O)[C@@H]1O`
Solution: T

Problem: IC50 under 0.1 µM? Item: `COc1ccc(Cc2c[nH]c3cccc(O[C@@H]4O[C@H](CO)[C@@H](O)[C@H](O)[C@H]4O)c23)cc1`
Solution: F

Problem: IC50 under 0.1 µM? Item: `CCOC(=O)OC[C@H]1O[C@@H](Oc2cccc3[nH]cc(Cc4ccc(CC)cc4)c23)[C@H](O)[C@@H](O)[C@@H]1O`
Solution: F
